B1: CRISP2 (cysteine-rich secretory protein 2), C-terminal polyhistidine tag [modified: RED-tris-NTA fluorescent label on the His tag; RED-tris-NTA fluorescent label on the His tag] [human] / prostate secretory protein of … (parent)
chain 1: KDPAFTALLTTQLQVQREIVNKHNELRKAVSPPASNMLKMEWSREVTTNAQRWANKCTLQHSDPEDRKTSTRCGENLYMSSDPTSWSSAIQSWYDEILDFVYGVGPKSPNAVVGHYTQLVWYSTYQVGCGIAYCPNQDSLKYYYVCQYCPAGNNMNRKNTPYQQGTPCAGCPDDCDKGLCTNSCQYQDLLSNCDSLKNTAGCEHELLKEKCKATCLCENKIY
chain 2: SCYFIPNEGVPGDSTRKCMDLKGNKHPINSEWQTDNCETCTCYETEISCCTLVSTPVGYDKDNCQRIFKKEDCKYIVVEKKDPKKTCSVSEWII

- Variants of: B1
- TEST_SUMMARY: microscale thermophoresis
- ASSAY_CONTEXT: with prostate secretory protein of 94 amino acids (PSP94), measurements in triplicates, PSP94 titrated (x axis PSP94 [nM])
MEASUREMENT_NAME: Kd

Looking up chain 1 N76P L77G , I see its Kd listed as 4 nM
